assay: soluble on expression in E. coli; label from the status in PepcDB or PDB records
REPORTED PROPERTY: soluble on expression in E. coli

Consider the reported soluble on expression in E. coli for these sequences:
AIAAQEENKRLVVVVPNEMTVPSRRAFTSEDEAWKSYLENPLTAATKAMMSINGDEDSVAALGILYDYYKVPKEKRLLPVHKLPEDHEKSRISQDGLESAENRIHVLKSLPVNLSLNPDSENKQDLFGTVPAEDGVVATVKPEVYAQSFSSHHQQLHYHRTPYHPHLQDSVSVSHDRYMKDDQCSTPDSTFEDSYPEDPMRYRVPTTPAAEDFTHEQAGLNMFQYNIEASRSVREKAADGPMVYLNKGQFYGITLSETGANKGLRHPISKVRTVVMVVFGQEKCRDEQLKHWNYWHTRQHTAKQRVLDIADYKESFNTIGNIEEIAYNAVSFTWDPAAVHKSFCASVILL | soluble
MSLQLSNFLELERADTFENVERVQNAVATEQSYLDYIVQDWACWDDTYQFIEDKNPEYIRVDLQNQTLSGINVNVMIFVNNSGKVVYVKSVNTSTAEEAPVPRKLLAMIEDGGLLTEGENDSISGFVLLDEDPMFIACHPILTTKYEGPSRGTLIFGRYFDDALLESFKKVTRSSLLMYRADEEMPQDFQNKIKNFSQNSDNIVVDPLNKNQIAGYFGLKDIKGDIALILRADFPREGHHHHHH | soluble
MSLQEVKKTYFVSKPGTLISMMTEEEANQVTHLTLTGKINAVDFRHLRDEFKNLQVLDIANASISMYSGKEGTYPDKFYIYMPNFVPAYAFCKMENGTAKGKSTLKKIILSEKIKNIEDAAFMGCENLNICQIKKKTPPNLLPEALADSITAIFVPLGASDEYRLKNRWDNFAFIEGEPLEAKIEVGALSTLENEIQKAGLQPKEINFLTIEGKLDAADFKLIRDYMPNLVAVDIEKTNATAIPDFTFSQKKYLLRIRLPHGLKSIGQRAFSNCGRLCGTVELPESITAIEYGAFMGCDRLRYVVAHGDKITTIGDNLFGEGKNKLIYKREGHHHHHH | soluble
MGSDKIHHHHHHMEVKVGLAPMAGYTDSAFRTLAFEWGADFAFSEMVSAKGFLMNSQKTEELLPQPHERNVAVQIFGSEPNELSEAARILSEKYKWIDLNAGCPVRKVVKKGAGGALLKDLRHFRYIVRELRKSVSGKFSVKTRLGWEKNEVEEIYRILVEEGVDEVFIHTRTVVQSFTGRAEWKALSVLEKRIPTFVSGDIFTPEDAKRALEESGCDGLLVARGAIGRPWIFKQIKDFLRSGKYSEPSREEILRTFERHLELLIKTKGERKAVVEMRKFLAGYTKDLKGARRFREKVMKIEEVQILKEMFYNFIKEV | not soluble
KKLCGYLSKFGGKGPIRGWKSRWFFYDERKCQLYYSRTAQDANPLDSIDLSSAVFDCKADAEEGIFEIKTPSRVITLKAATKQAMLYWLQQLQMKRWEFHNSPPAP | soluble
MSLAEYVYTMSRVSKIVPPKRQILKDISLSFFPGAKIGVLGLNGAGKSTLLRIMAGIDKDIDGEARPQPGLKVGYLPQEPKLDESKTVREVVEEAVADVAYALKRLDEVYAAYAEPDADFDALAKEQGELEALIQAKNGHNLDNALERAADALRLPEWDAQVKYLSGGERRRVAICRLLLENPDMLLLDEPTNHLDAESVAWLERFLVDYAGTVVAITHDRYFLDNAAGWILELDRGEGIPWQGNYTSWLEQKDARLKQEASEGHHHHHH | not soluble

The sequence listed as HSQRVIRELDEHGFWSAMIPQWEHIRGRMPRESVHIHTIDVHSMVVTANCATQSIRVARPDLLFLAALFHDIGKGYGRRHEEVGAEFVVDMATTLRLNPSDTQIVETLVAQHTIIPHIVGRYNPTSTEAIDKLLDAVNYDLLTLDLLEALVEADAQGTAPGVWSAVLRYGTRELCAQARQR shows soluble on expression in E. coli equal to not soluble

Lookup result for MGLFTTRQLLGYTEQKVKFRALFLELFFRRTVNFHTEEVMLDKITGKTPVAAYVSPVVEGKVLRHRGGETRVLRPGYVKPKHEFNYQQAVERLPGEDPAQLNGPAYRRLRIITDNLKQEEHAIVQVEEMQAVNAVLYGKYTMEGEQFETVEVDFGRSVGNNITQAGGTEWSAQDRDTFDPTHDLDAYCDFASGTINIAIMDGKVWRLLNGFKLFREKLDTRRGSNSQLETAVKDLGAVVSFKGYYGDLAIVVAKTSYVAEDGTEKRYLPDGTLVLGNTAAEGIRCYGAIQDAQALSEGVVASSRYPKHWLTVGDPAREFTMTQSAPLMVLPDPDEFVVVQVK ; measured soluble on expression in E. coli: not soluble

Memo: GSHMLEDPLRVSPMIREFVQSIDDREWQTQLFALLQKQTYNQVEVDLFELMCKVLDQNLFSQVDWARNTVFFKDLKVDDQMKLLQHSWSDMLVLDHLHHRIHNGLPDETQLNNGQVFNLMSLGLLGVPQLGDYFNELQNKLQDLKFDMGDYVCMKFLILLNPSVRGIVNRKTVSEGHDNVQAALLDYTLTCYPSVNDKFRGLVNILPEIHAMAVRGEDHLYTKHCAGSAPTQTLLMEMLHAKR , reported soluble on expression in E. coli: soluble

Recorded result, MSLGQFSISEVGHFYIAANTSLKHIHVTCAIIERDGLVLAAQRSAVMSLPLKWEFPGGKIDPGESPEECLRRELVEEMAVHVRVGQSLPVSTHQYPTFSVTLYPFLCTIESGEIVLHEHVAVTWLPPDELHTLDWAEADLPVIKSYQQGCRMRDHEGHHHHHH , soluble on expression in E. coli: not soluble

Recorded result, MPLVGQNVFKSSVTEYDAQTPVVYTVYNEVHQDLLNNTVFLKALADAIDSEIQAAREGKASLLANLQSIRLALQSGSANFGGPAGTTITHNLGTTNFRVSITPTANPDGYLGEIWVVKSSNTMTVFNSGDFRGAFDYQIFKN , soluble on expression in E. coli: not soluble

Recorded result, MAHHHHHHMDEEVVLRGVEDITCRCVYSHVYVYARVCVFGYVLPSSSVVYRGTLAMECTFGVHEKKNKMKKNKCYLRGQTIGTRDTVCGVMCLNIPPRHCYCSFFLFPFYNPFLL , soluble on expression in E. coli: not soluble

---

experiment: soluble on expression in E. coli; label from the status in PepcDB or PDB records
REPORTED PROPERTY: soluble on expression in E. coli

Record excerpt, results attached:
MSKLLYLVAVDGGEWGERAADRAIHLAEKTHAKVKLVTVIDWPYIHPMIIEGAAAPLLDKEAEEMTVKAKVITPLVEKYNTLSLNITTELLWGDPAVILKEQVEVTNADMIFVGRQGRSSVVDTLFGSVANKLAHSVSVPIVLVP | not soluble
MKFVNFDEYKQLVDYFRNRLNPNYSSPTMLFIISITGMRASEAFGLVWDDIDFNNNTIKCRRTWNYRNKVGGFKKPKTDAGIRDIVIDDESMQLLKDFREQQKTLFESLGIKPIHDFVCYHPYRKIITLSALQNTLDHALKKLNISTPLTVHGLRHTHASVLLYHGVDIMTVSKRLGHASVAITQQTYIHIIKELENKDKDKIIELLMELLEHHHHHH | soluble
MAHHHHHHMGTLEAQTQGPGSMKLAINGFGRIGRNVFKIAFERGIDIVAINDLTDPKTLAHLLKYDSTFGVYNKKVESRDGAIVVDGREIKIIAERDPKNLPWAKLGIDVVIESTGVFSSATSDKGGYLDHVNHAGAKKVILTVPAKDEIKTIVLGVNDHDINSDLKAVSNASCTTNCLAPLAKVLHESFGIEQGLMTTVHAYTNDQRILDLPHSDLRRARAAALSIIPTSTGAAKAVGLVLPELKGKLNGTSMRVPVPTGSIVDLTVQLKKKDVTKEEINSVLRKASETPELKGILGYTEDPIVSSDIKGNSHSSIVDGLETMVLENGFAKILSWYDNEFGYSTRVVDLAQKLVK | soluble
MKEDEVNRCQIQNWYPRFKSLTIKTKFHKLPESFINYLIDDSGPFLLPHSVTNEDAMPNRVHNFEEEDDFQVPEEASDDEPLNRPSFPELEIEIRESIETLGGTIIPKLNWSSPKDAAWISPSQNLSCTCFNEIALLFRSSDSLTHDLFNAYDSCSDKVSSRPESFYLALRKWYPSLKPEMEFRCFVKSNELVGICQREVTTFYPVLLNEKDLLKGLIEEFFDDKIRFEFESENYTFDVYVTKERRVKLIDFNTWCGSTLPLMYTWEELEKIHGECDELELRIVESRLSVLPGLKTAVPYDYLDVSAGSGWAQVLKIVEEEFQKDDQSSDEVA | soluble
VEHEQQVTESPSLASVPTADELFDFHIGDRVLIGNVQPGILRFKGETSFAKGFWAGVELDKPEGNNNGTYDGIAYFECKEKHGIFAPPQKISHIPENFDDYVDINEDED | soluble

In plain terms, LGFLPKEKKDKIKRFIKYEDALMSLTAEILIRAVVCSKLGIKNESVKFNRTTYGKPYLEGYDDFHFNLSHSGSWVVCAVSSKPVGIDIEKIREVDLDIAKRFFSKEEASDLFAKEDNEKTEYFFELWTLKESYIKADGRGLSLPLNSFFFRIENDNVIFVSESEKKKFFFKRYDIDKGYKLAVCSMESHFPEDVEIKSFEEVCKFLCER has a documented soluble on expression in E. coli of not soluble

Recorded result, AIAFQPVTQKRLTNVSVVRMRKGGKRFEIACYPNMVMAYREGHVRDLDEVIQVEDVFENVSKGKLAANADLERCFGTRDRHAVLLQILLHGDLQVSDRERQYQSTRKLHEIASVVAAKTISRETKKPLPVGLIEKALREIHFAVQPNRPAKAQALEVIPLLRAQSGLDLERARLRLRIHVPSQRDAKAVKARLEPLQQGETDGTHSSSRSDSVRMKDGSAAVESESEEWLPGGALLWTVQADPGAFREIEEIVQRETNQQGIVEVASLRVLDDEDESILS , soluble on expression in E. coli: soluble
